From: ChEMBL document CHEMBL3046065

tested on: Botrytis cinerea; assay: Antifungal activity against Botryotinia fuckeliana KUCC 869 assessed as growth inhibition at 200 ug/ml at 27 to 29 degC after 7 days by agar tube dilution method; assay type: functional; details: KUCC 869, 168 h, read-out: GI
Hi there, I'd appreciate the recorded inhibition of growth at 200 µg/mL for every entry that follows.
Write down the numeric answer in % and omit the unit.

Challenge: Consider the molecule CO[C@H]1CC(C)(C)[C@@H]2CC[C@@]3(C)C[C@]12CCC3=O . State its measured inhibition of growth at 200 µg/mL.
Response given: 71

Challenge: Consider the molecule CC1(C)C[C@H](O)[C@]23CC[C@@H](O)[C@@](C)(CC[C@@H]12)C3 . State its measured inhibition of growth at 200 µg/mL.
Response given: 59

Challenge: Consider the molecule CO[C@H]1CC(C)(C)[C@@H]2CC[C@@]3(C)C[C@]12CC[C@H]3O . State its measured inhibition of growth at 200 µg/mL.
Response given: 81

Challenge: Consider the molecule C[C@@]12CC[C@H]3[C@](C)(CO)C[C@H](O)[C@@]3(CC[C@@H]1O)C2 . State its measured inhibition of growth at 200 µg/mL.
Response given: 11
